test system: RAW-Dual (murine macrophage reporter line); experiment: IRF reporter (Lucia luciferase) activity fold change vs agonist alone; higher = enhanced IRF activity; conditions: modulator concentration 10 µM; agonist: 3'3'-cGAMP 10 ug/mL
Metric: IRF reporter
Form: value (number only, do not type unit).

A selection of reference data follows.
| Compound | IRF reporter |
| --- | --- |
| CCOC(=O)C1=C(Nc2ccccc2)SC(=Cc2ccc(O)c(OCC)c2)C1=O | 1.1 |
| COc1ccc2sc(C)[n+](CCCS(=O)(=O)[O-])c2c1 | 0.923 |
| CCOC(=O)C1=C(C)NC(C)=C(C(=O)OC)C1c1cccc(Cl)c1Cl (stereo unspecified) | 1.13 |
| N#Cc1c(N=Cc2ccc(O)cc2)sc2c1CCCC2 | 0.713 |
| COc1ccc(C(C)NC(=O)c2[nH]nnc2-c2ccc(F)cc2)cc1 (stereo unspecified) | 0.669 |

# next compound below
Can you share its IRF reporter? I mean this compound: COc1ccccc1C=C(C#N)c1nc(-c2cc3cc(Br)ccc3oc2=O)cs1
0.972

====

tested on: RAW-Dual (murine macrophage reporter line); experiment: IRF reporter (Lucia luciferase) activity fold change vs agonist alone; higher = enhanced IRF activity; details: modulator concentration 10 µM; agonist: 3'3'-cGAMP 10 ug/mL
This listing pairs compounds with measured IRF reporter.
Just the number, please, no unit after it.

Some entries whose results are on file:
| Compound | Metric | Assay Value |
| --- | --- | --- |
| CN1CCN(C2=C(Cl)C(=O)N(c3cccc(Cl)c3)C2=O)CC1 | IRF reporter | 0.465 |
| COc1cccc(CCNC(=O)CC2CSc3nc4c(c(=O)n32)CCCC4)c1 (stereo not drawn) | IRF reporter | 0.886 |

So what does the record say about IRF reporter for O=C(NCC1(c2ccc(F)cc2)CCOCC1)c1cnc2ccccc2n1 ?
1.08

Which IRF reporter is reported for this compound? CC(=O)O.NCc1ccc(S(N)(=O)=O)cc1
0.914

Item CNC1(C)C2CCC(C2)C1(C)C.Cl (stereo not drawn) has what recorded IRF reporter?
0.911

Give the measured IRF reporter of O=C(Nc1cc(C(F)(F)F)cc(C(F)(F)F)c1)c1c(F)cccc1F .
0.987

GET /values?readout=IRF reporter&item= CCOc1cccc2sc(=NC(=O)c3ccc(S(=O)(=O)N4CCOCC4)cc3)n(C)c12
0.97

Recorded IRF reporter for O=C(CCC(=O)NN=Cc1ccc(O)cc1O)NN=Cc1ccc(O)cc1O , please?
0.944

Given the entry O=C(O)CCCNC(=O)c1cccc([N+](=O)[O-])c1 , report its measured IRF reporter.
0.986

Please look up its IRF reporter: Cc1cc(C(=O)NNCc2ccccc2)no1
0.958

IRF reporter lookup needed for CCOc1ccc(Nc2nc(Nc3ccc(OCC)cc3)nc(N3CCOCC3)n2)cc1 , thanks.
1.14

Please give the measured IRF reporter for this compound: O=C(Cc1ccccc1)NC(NC(=S)Nc1ccc(O)cc1)C(Cl)(Cl)Cl (stereo not drawn)
0.935

Which IRF reporter value belongs to CC(=O)C1=C(C)OC2(O)c3ccccc3C(=O)C12O (stereo not drawn) ?
0.831

Which IRF reporter reading was recorded for the compound c1ccc(CSc2nnc(-c3cccnc3)o2)nc1 ?
0.992

Give the measured IRF reporter of C[C@H](Cc1cc2c(c(C(N)=O)c1)N(CCCO)CC2)NCCOc1ccccc1OCC(F)(F)F .
0.732

====

tested on: RAW-Dual (murine macrophage reporter line); assay: NF-kB reporter (SEAP) activity fold change vs agonist alone; higher = enhanced NF-kB activity; details: modulator concentration 10 µM; agonist: LPS 0.1 ug/mL
Metric: NF-kB reporter
Reply with just the number.

| Compound | NF-kB reporter |
| --- | --- |
| O=C(Cn1c(C(F)(F)F)nc2ccccc21)c1ccc(OC(F)F)cc1 | 1.07 |
| Nc1ncn([C@@H]2O[C@H](CO)[C@@H](O)[C@H]2O)c(=O)n1 | 0.569 |
| CN1CCN(C2=Nc3ccccc3Oc3ccc(Cl)cc32)CC1.O=C(O)CCC(=O)O | 0.796 |
| Cc1cc(-c2ccc(N=Cc3ccc(Cl)c([N+](=O)[O-])c3)c(C)c2)ccc1N=Cc1ccc(Cl)c([N+](=O)[O-])c1 | 1.01 |
| CCN(CC)C(=O)C(=Cc1ccc(Br)cc1)NC(=O)c1ccccc1OC | 1.09 |

Please give the measured NF-kB reporter for this compound: Cc1cc(C(=O)N2CCC(Oc3cccc4cccnc34)CC2)c(C)o1
1.1

Please report the recorded NF-kB reporter for O=C(Nc1cc(C(F)(F)F)cc(C(F)(F)F)c1)c1ccco1 .
1.07

Query: NF-kB reporter; subject: Cc1cccc(C(=O)N2N=C(C3CCCCC3)CC2(O)C(F)(F)F)c1O (stereo not given)
0.839

May I ask what NF-kB reporter has been recorded for CCCCc1oc2ccccc2c1C(=O)c1cc(I)c(OCCN(CC)CC)c(I)c1.Cl ?
0.988

Requested field: NF-kB reporter. Item: CCCCCN(CCCCC)C(=O)C(CCC(=O)[O-])NC(=O)c1ccc(Cl)c(Cl)c1 (stereo not given)
0.954

====

system: RAW-Dual (murine macrophage reporter line); assay: viability score (confluency relative to resting cells, overnight) (fraction); higher = more viable, active = viable (0.7 or more); details: modulator concentration 10 µM
Metric: viability score
Answer with the value's number alone.

| Compound | Target System | viability score |
| --- | --- | --- |
| CCOc1ccc(-c2cccc(NC(=O)c3c(F)cccc3F)c2)nn1 | RAW-Dual (murine macrophage reporter line) | 0.982 |
| Oc1c(Cl)cc(Cl)cc1C=Nc1cc(Cl)cc(Cl)c1 | RAW-Dual (murine macrophage reporter line) | 0.734 |
| CCN(CC)C(=O)N1CCN(C)CC1 [Prestw-284] | RAW-Dual (murine macrophage reporter line) | 0.99 |
| CC1(C)NC(=O)N(c2ccc([N+](=O)[O-])c(C(F)(F)F)c2)C1=O | RAW-Dual (murine macrophage reporter line) | 0.968 |
| Cc1cccc(-c2cc3nc(C)c(Cl)c(O)n3n2)c1 | RAW-Dual (murine macrophage reporter line) | 0.996 |

Form field: reported viability score of Oc1ccc(OCc2ccccc2)cc1
0.832

Suppose we examine the compound CC1CCc2c(oc3ccc(NS(=O)(=O)c4ccc(F)cc4)cc23)C1 (stereo unspecified) ; what viability score value has been reported?
0.144

If you can, please state the reported viability score value of OC1C=C2CCN3Cc4cc5c(cc4C(C1O)C23)OCO5 (stereo unspecified) .
0.71

// lookup viability score for CC(C)C1=NN2C(=N)C(=Cc3ccc(-c4ccccc4[N+](=O)[O-])o3)C(=O)N=C2S1
1.01

Can you share its viability score? I mean this compound: COC(=O)CCc1ccc(OCC(O)CNC(C)C)cc1 (stereo unspecified) [Prestw-1137]
1

Requested read-out: viability score. Entry: COC(=O)C1=C(C#N)NC(C)=C(C(=O)OC(C)C)C1c1cccc([N+](=O)[O-])c1 (stereo unspecified)
0.968

====

test system: RAW-Dual (murine macrophage reporter line); assay: IRF reporter (Lucia luciferase) activity fold change vs agonist alone; higher = enhanced IRF activity; conditions: modulator concentration 10 µM; agonist: LPS 0.1 ug/mL
Please note: 1 (yes) applies when IRF reporter is 1 or greater, and 0 (no) applies otherwise.

Observe how each entry below is paired with its result.
| Compound | Label |
| --- | --- |
| CC1(C)CC(=O)C2=C(C1)OC(N)=C(C#N)C21CCCC1 | 1 (yes) |
| COc1cc2ncnc(Nc3ccc(F)c(Cl)c3)c2cc1NC(=O)/C=C/CN1CCCCC1 | 0 (no) |
| COc1cc2nc(N3CCN(C(=O)C4COc5ccccc5O4)CC3)nc(N)c2cc1OC.CS(=O)(=O)O (stereo unspecified) | 1 (yes) |
| CCc1c2c(nc3ccc(OC(=O)N4CCC(N5CCCCC5)CC4)cc13)-c1cc3c(c(=O)n1C2)COC(=O)[C@]3(O)CC.Cl.O.O.O | 1 (yes) |
| CC(=O)Nc1ccc(NC(=S)NC(=O)C=Cc2ccc(Cl)cc2)cc1 | 0 (no) |

Does IRF reporter meet or surpass 1 for COc1cc2nc(N3CCN(C(=O)c4ccco4)CC3)nc(N)c2cc1OC ?
1 (yes)

Determine whether this compound has IRF reporter no lower than 1: COC(=O)N[C@H](C(=O)N1CCC[C@H]1c1ncc(-c2ccc(-c3ccc(-c4cnc([C@@H]5CCCN5C(=O)[C@@H](NC(=O)OC)C(C)C)[nH]4)cc3)cc2)[nH]1)C(C)C.Cl.Cl
1 (yes)

Is IRF reporter at least 1? Consider NS(=O)(=O)c1ccc(F)cc1
1 (yes)

Determine whether this compound has IRF reporter no lower than 1: O=C(CSc1nc2c(c(=O)n1-c1ccccc1)SCC2)N1CCN(c2ccccc2)CC1
0 (no)

Quick check: does O=C(NCCOc1cccc2ccccc12)Nc1cc(F)c(F)cc1Cl have IRF reporter greater than or equal to 1?
1 (yes)
